# SYSTEM TESTED: KRAS G12C/SOS/c-Raf complex (Homo sapiens, UniProt P01116, G12C)
# Construct: Biotinylated AviTag-KRAS G12C (amino acid region 1-185, GDP)
# Sequence (P01116 1-185 isoform P01116-2 G12C, one chain of several): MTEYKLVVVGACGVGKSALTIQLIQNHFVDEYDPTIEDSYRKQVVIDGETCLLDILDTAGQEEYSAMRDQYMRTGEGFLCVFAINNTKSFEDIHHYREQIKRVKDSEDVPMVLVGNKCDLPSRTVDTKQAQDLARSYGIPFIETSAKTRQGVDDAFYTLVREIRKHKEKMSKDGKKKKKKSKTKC
# METHOD DESCRIPTION: KRAS G12C/SOS/c-Raf complex formation inhibitory action (TR-FRET)
# PARTICULARS: one hour at room temperature, read-out: IC50 (KRAS G12C/SOS/c-Raf complex formation inhibition)
ATTRIBUTE MEASURED: pIC50
Note on pIC50: it is the negative log10 of concentration, concentration in mol/L.

- MOLECULE: "C=CC(=O)N1CC2(CCN(c3nc(OC4CCN(Cc5ccccn5)CC4)nc4c(OCC(F)(F)F)c(-c5c(C)ccc6[nH]ncc56)c(C=C)cc34)CC2)C1"
  ATTRIBUTE MEASURED: "pIC50"
  OBSERVED MEASUREMENT: 7.20
- MOLECULE: "COCCN1CCC(Oc2nc(N3CCC4(CC3)CN(C(=O)/C=C/C(F)(F)F)C4)c3cc(C4CC4)c(-c4c(C)ccc5[nH]ncc45)c(OCC(F)F)c3n2)CC1"
  ATTRIBUTE MEASURED: "pIC50"
  OBSERVED MEASUREMENT: 7.37

Challenge: For the molecule shown here, C=CC(=O)N1CC2(CCN(c3nc(OC4CCN(CCOC)CC4)nc4c(OCC(F)(F)C(F)(F)F)c(-c5c(C)ccc6[nH]ncc56)c(C=C)cc34)CC2)C1 , give the reported pIC50.
Response given: 7.24

Challenge: For the molecule shown here, C=CC(=O)N1CC2(CCN(c3nc(OC4CCN(C5COC5)CC4)nc4c(OCC(F)(F)F)c(-c5c(C)ccc6[nH]ncc56)c(C=C)cc34)CC2)C1 , give the reported pIC50.
Response given: 7.36

Challenge: For the molecule shown here, C=CC(=O)N1CC2(CCN(c3nc(OC4CCN(CC(F)(F)F)CC4)nc4c(OCC(F)(F)F)c(-c5c(C)ccc6[nH]ncc56)c(C=C)cc34)CC2)C1 , give the reported pIC50.
Response given: 6.78

Challenge: For the molecule shown here, C=CC(=O)N1CC2(CCN(c3nc(OCCCN4CCOCC4)nc4c(OCC)c(-c5c(C)ccc6[nH]ncc56)c(C=C)cc34)CC2)C1 , give the reported pIC50.
Response given: 7.25

Challenge: For the molecule shown here, C=CC(=O)N1CC2(CCN(c3nc(OC4CCN(CCOC)CC4)nc4c(OCC(F)(F)F)c(-c5c(C)cc(F)c6[nH]ncc56)c(C=C)cc34)CC2)C1 , give the reported pIC50.
Response given: 7.33

Challenge: For the molecule shown here, C=CC(=O)N1CC2(CCN(c3nc(OC4CCN(C(=O)N(C)C)CC4)nc4c(OCC(F)(F)F)c(-c5c(C)ccc6[nH]ncc56)c(C=C)cc34)CC2)C1 , give the reported pIC50.
Response given: 7.10

Challenge: For the molecule shown here, C=CC(=O)N1CC2(CCN(c3nc(OC4CCN(C(CF)CF)CC4)nc4c(OCC(F)(F)F)c(-c5c(C)ccc6[nH]ncc56)c(C=C)cc34)CC2)C1 , give the reported pIC50.
Response given: 7.08

* * *

Listing of entries alongside the reported pIC50.
# SYSTEM TESTED: KRAS G12C/SOS/c-Raf complex (Homo sapiens, UniProt P01116, G12C)
# Construct: Biotinylated AviTag-KRAS G12C (amino acid region 1-185, GDP)
# METHOD DESCRIPTION: KRAS G12C/SOS/c-Raf complex formation inhibitory action (TR-FRET)
# PARTICULARS: one hour at room temperature, read-out: IC50 (KRAS G12C/SOS/c-Raf complex formation inhibition)
Note on pIC50: it is the negative log10 of concentration, concentration in mol/L.

- MOLECULE: "C=CC(=O)N1CC2(CCN(c3nc(OC4CCN(CC)CC4)nc4c(OC5CCC5)c(-c5c(C)ccc6[nH]ncc56)c(C=C)cc34)CC2)C1"
  pIC50: 7.49
- MOLECULE: "C=CC(=O)N1CC2(CCN(c3nc(OCCCN(C)C)nc4c(OCC(F)(F)F)c(-c5c(C)ccc6[nH]ncc56)c(C=C)cc34)CC2)C1"
  pIC50: 7.40
- MOLECULE: "C=CC(=O)N1CC2(CCN(c3nc(OC4CCN(C)CC4F)nc4c(OCC(F)(F)F)c(-c5c(C)ccc6[nH]ncc56)c(C=C)cc34)CC2)C1 (stereo not drawn)"
  pIC50: 7.25
- MOLECULE: "C=CC(=O)N1CC2(CCN(c3nc(OC4CCN(CC)CC4)nc4c(OCC)c(-c5c(Cl)ccc6[nH]ncc56)c(C=C)cc34)CC2)C1"
  pIC50: 7.19
- MOLECULE: "C=CC(=O)N1CC2(CCN(c3nc(OC4CCN(CCOCC)CC4)nc4c(OCC(F)(F)F)c(-c5c(C)ccc6[nH]ncc56)c(C=C)cc34)CC2)C1 [Example 37]"
  pIC50: 7.77

Please find the next molecule below.
Challenge: For the molecule shown here, C=CC(=O)N1CC2(CCN(c3nc(OC4CCN(CCOC)CC4)nc4c(OC(F)F)c(-c5c(C)ccc6[nH]ncc56)c(C=C)cc34)CC2)C1 , give the reported pIC50.
Response given: 7.43

* * *

# SYSTEM TESTED: KRAS G12C/SOS/c-Raf complex (Homo sapiens, UniProt P01116, G12C)
# Construct: Biotinylated AviTag-KRAS G12C (amino acid region 1-185, GDP)
# METHOD DESCRIPTION: KRAS G12C/SOS/c-Raf complex formation inhibitory action (TR-FRET)
# PARTICULARS: one hour at room temperature, read-out: IC50 (KRAS G12C/SOS/c-Raf complex formation inhibition)
Listing of entries alongside the reported IC50.
Express the result in nM but write the number alone.

- SMILES STRUCTURE: "C=CC(=O)N1CC2(CCN(c3nc(OC4CCN(C5COC5)CC4)nc4c(OCC)c(-c5c(C)ccc6[nH]ncc56)c(C5CC5)cc34)CC2)C1"
  UNIT LABEL: "nM"
  IC50: 36
- SMILES STRUCTURE: "C=CC(=O)N1CC2(CCN(c3nc(OC4CCN(CCN5CCOCC5)CC4)nc4c(OCC(F)(F)F)c(-c5c(C)ccc6[nH]ncc56)c(C5CC5)cc34)CC2)C1"
  UNIT LABEL: "nM"
  IC50: 38
- SMILES STRUCTURE: "C=CC(=O)N1CC2(CCN(c3nc(OC4CCN(CC5CC5)CC4)nc4c(OCC(F)(F)F)c(-c5c(C)ccc6[nH]ncc56)c(C=C)cc34)CC2)C1"
  UNIT LABEL: "nM"
  IC50: 48
- SMILES STRUCTURE: "C=CC(=O)N1CC2(CCN(c3nc(N4CCN(C)CC4)nc4c(OCC(F)(F)F)c(-c5c(C)ccc6[nH]ncc56)c(C=C)cc34)CC2)C1"
  UNIT LABEL: "nM"
  IC50: 50

Please find the next compound below.
Challenge: For the compound shown here, C=CC(=O)N1CC2(CCN(c3nc(O[C@H]4CC[C@@H](N(C)C)CC4)nc4c(OCC(F)(F)F)c(-c5c(C)ccc6[nH]ncc56)c(C=C)cc34)CC2)C1 , give the reported IC50.
Response given: 32

* * *

# SYSTEM TESTED: KRAS G12C/SOS/c-Raf complex (Homo sapiens, UniProt P01116, G12C)
# Construct: Biotinylated AviTag-KRAS G12C (amino acid region 1-185, GDP)
# METHOD DESCRIPTION: KRAS G12C/SOS/c-Raf complex formation inhibitory action (TR-FRET)
# PARTICULARS: one hour at room temperature, read-out: IC50 (KRAS G12C/SOS/c-Raf complex formation inhibition)
# Description: Evaluation of KRAS G12C/SOS/c-Raf Complex Formation Inhibitory Action Human Recombinant KRAS G12C, SOS, and c-Raf protein were used, and with respect to the complex formation of these proteins, an inhibitory action of the test compound was examined through a time-resolved fluorescence resonance energy transfer (TR-FRET) method. […]
Listing of entries alongside the reported IC50.
I'd appreciate it if you included the unit after the number.

- COMPOUND: "C=CC(=O)N1CC2(CCN(c3nc(OC4CCN(CC)CC4)nc4c(OCC)c(-c5c(C)c(F)cc6[nH]ncc56)c(C=C)cc34)CC2)C1"
  SYSTEM TESTED: "KRAS G12C/SOS/c-Raf complex (Homo sapiens, UniProt P01116, G12C)"
  IC50: "0.032 µM"
- COMPOUND: "C=CC(=O)N1CC2(CCN(c3nc(OC4CCN(CC5CCOCC5)CC4)nc4c(OCC(F)(F)F)c(-c5c(C)ccc6[nH]ncc56)c(C=C)cc34)CC2)C1"
  SYSTEM TESTED: "KRAS G12C/SOS/c-Raf complex (Homo sapiens, UniProt P01116, G12C)"
  IC50: "0.041 µM"

Challenge: For the compound shown here, C=CC(=O)N1CC2(CCN(c3nc(OC4CCN(C)CC4)nc4c(OCc5ccc(OC(F)F)cc5)c(-c5c(C)ccc6[nH]ncc56)c(C=C)cc34)CC2)C1 , give the reported IC50.
Response given: 0.047 µM

Challenge: For the compound shown here, C=CC(=O)N1CC2(CCN(c3nc(OC4CCN(C5CCN(C)CC5)CC4)nc4c(OCC(F)(F)F)c(-c5c(C)ccc6[nH]ncc56)c(C=C)cc34)CC2)C1 , give the reported IC50.
Response given: 0.041 µM

Challenge: For the compound shown here, C=CC(=O)N1CC2(CCN(c3nc(OC4CCN(C(C)=O)CC4)nc4c(OCC(F)(F)F)c(-c5c(C)ccc6[nH]ncc56)c(C=C)cc34)CC2)C1 , give the reported IC50.
Response given: 0.055 µM

Each recorded value in this set is attributed to patent US10774082B2.
